Tested on: HCI-023 (organoid from a triple-negative breast cancer xenograft)
methodDescription: CTG-3D luminescence at 96 h relative to day-0 seeding control (ratio to day 0); higher = more growth / less cytotoxicity; PDxO 3D drug screen (set 2), 96 h, CTG-3D normalised to day-0 seeding control.
conditionContext: 625 fM; days in culture: 238
Lab note: anything with CTG-3D luminescence at 96 h at or over 1 counts as t; the rest go in f.

Some solved entries appear below for comparison.
CO[C@H]1C[C@@H]2CC[C@@H](C)[C@@](O)(O2)C(=O)C(=O)N2CCCC[C@H]2C(=O)O[C@H]([C@H](C)C[C@@H]2CC[C@@H](O)[C@H](OC)C2)CC(=O)[C@H](C)/C=C(\C)[C@@H](O)[C@@H](OC)C(=O)[C@H](C)C[C@H](C)/C=C/C=C/C=C/1C
t
O=C(c1cc(Cc2n[nH]c(=O)c3ccccc23)ccc1F)N1CCN(C(=O)C2CC2)CC1
t
Cc1c(CN2CCN(C(=O)[C@H](C)O)CC2)sc2c(N3CCOCC3)nc(-c3cnc(N)nc3)nc12
t
Nc1cc(C(F)(F)F)c(-c2cc(N3CCOCC3)nc(N3CCOCC3)n2)cn1
t
CC(=O)O[C@@]12CO[C@@H]1C[C@H](O)[C@@]1(C)C(=O)[C@H](O)C3=C(C)[C@@H](OC(=O)[C@H](O)[C@@H](NC(=O)OC(C)(C)C)c4ccccc4)C[C@@](O)([C@@H](OC(=O)c4ccccc4)[C@H]21)C3(C)C
f

Then this compound:
Req: For this compound, is measured CTG-3D luminescence at 96 h 1 or higher? CC(C)n1nc(-c2ccc3oc(N)nc3c2)c2c(N)ncnc21
Resp: t

###

Test system: HCI-023
methodDescription: CTG-3D luminescence at 96 h relative to day-0 seeding control (ratio to day 0); higher = more growth / less cytotoxicity; PDxO 3D drug screen, 96 h, CTG-3D normalised to day-0 seeding control.
conditionContext: 625 fM; days in culture: 128
parameterMeasured: CTG-3D luminescence at 96 h
Respond with the number and no other words.

Req: # return CTG-3D luminescence at 96 h for O=C(c1ccc(F)c(F)c1Nc1ccc(I)cc1F)N1CC(O)([C@@H]2CCCCN2)C1 , test system: HCI-023
Resp: 1.65

Req: # return CTG-3D luminescence at 96 h for NC(=O)Nc1cc(-c2cccc(F)c2)sc1C(=O)N[C@H]1CCCNC1 , test system: HCI-023
Resp: 1.67

Req: # return CTG-3D luminescence at 96 h for CC(C)(C(=O)NCC(F)(F)C(F)(F)F)C(=O)N[C@@H]1C(=O)Nc2ccccc2-c2ccccc21 , test system: HCI-023
Resp: 1.64

Req: # return CTG-3D luminescence at 96 h for CC1(C)CCC(c2ccc(Cl)cc2)=C(CN2CCN(c3ccc(C(=O)NS(=O)(=O)c4ccc(N[C@H](CCN5CCOCC5)CSc5ccccc5)c(S(=O)(=O)C(F)(F)F)c4)cc3)CC2)C1 , test system: HCI-023
Resp: 1.58

###

Tested on: HCI-002 (organoid from a triple-negative breast cancer xenograft)
methodDescription: CTG-3D luminescence at 96 h relative to day-0 seeding control (ratio to day 0); higher = more growth / less cytotoxicity; PDxO 3D drug screen, 96 h, CTG-3D normalised to day-0 seeding control.
conditionContext: 0.005 µM; days in culture: 191
parameterMeasured: CTG-3D luminescence at 96 h
Respond with the number and no other words.

Look over these answered cases.
NC(=O)Nc1cc(-c2cccc(F)c2)sc1C(=O)N[C@H]1CCCNC1
2.36
Cc1cc(Nc2ncc(Cl)c(Nc3ccccc3S(=O)(=O)C(C)C)n2)c(OC(C)C)cc1C1CCNCC1
2.59
CC(=O)O[C@H]1C(=O)[C@@]2(C)[C@H]([C@H](OC(=O)c3ccccc3)[C@]3(O)C[C@H](OC(=O)[C@H](O)[C@@H](NC(=O)c4ccccc4)c4ccccc4)C(C)=C1C3(C)C)[C@]1(OC(C)=O)CO[C@@H]1C[C@@H]2O
1.17
C[C@@H]1COCCN1c1cc(C2([S@](C)(=N)=O)CC2)nc(-c2cc[nH]c3nccc2-3)n1
2.17
C[C@]12CC[C@@H]3c4ccc(O)cc4C[C@@H](CCCCCCCCC[S+]([O-])CCCC(F)(F)C(F)(F)F)[C@H]3[C@@H]1CC[C@@H]2O (stereo partly drawn)
2.93
CCc1c2c(nc3ccc(O)cc13)-c1cc3c(c(=O)n1C2)COC(=O)[C@]3(O)CC
1.31
O=C(c1ccc(F)c(F)c1Nc1ccc(I)cc1F)N1CC(O)([C@@H]2CCCCN2)C1
2.54

Next molecule, please.
Req: # return CTG-3D luminescence at 96 h for CC(C)(C(=O)NCC(F)(F)C(F)(F)F)C(=O)N[C@@H]1C(=O)Nc2ccccc2-c2ccccc21 , test system: HCI-002
Resp: 2.45

###

Reported CTG-3D luminescence at 96 h by item:
Tested on: HCI-015 (organoid from a triple-negative breast cancer xenograft)
methodDescription: CTG-3D luminescence at 96 h relative to day-0 seeding control (ratio to day 0); higher = more growth / less cytotoxicity; PDxO 3D drug screen, 96 h, CTG-3D normalised to day-0 seeding control.
conditionContext: 12.5 pM; days in culture: 172

Look over these answered cases.
Nc1ccn([C@@H]2O[C@H](CO)[C@@H](O)C2(F)F)c(=O)n1
2.22
C/C=C1\NC(=O)[C@H]2CSSCC/C=C/[C@H](CC(=O)N[C@H](C(C)C)C(=O)N2)OC(=O)[C@H](C(C)C)NC1=O
1.96
CCc1c2c(nc3ccc(O)cc13)-c1cc3c(c(=O)n1C2)COC(=O)[C@]3(O)CC
2.31

Req: Look up CTG-3D luminescence at 96 h of C[C@@H]1COCCN1c1cc(C2([S@](C)(=N)=O)CC2)nc(-c2cc[nH]c3nccc2-3)n1 and report it.
Resp: 2.39

###

Tested on: HCI-027 (organoid from a triple-negative breast cancer xenograft)
methodDescription: CTG-3D luminescence at 96 h relative to day-0 seeding control (ratio to day 0); higher = more growth / less cytotoxicity; PDxO 3D drug screen, 96 h, CTG-3D normalised to day-0 seeding control.
conditionContext: 12.5 pM; days in culture: 201
Reported CTG-3D luminescence at 96 h by item:
Respond with the number and no other words.

Req: Look up CTG-3D luminescence at 96 h of CC(=O)O[C@H]1C(=O)[C@@]2(C)[C@H]([C@H](OC(=O)c3ccccc3)[C@]3(O)C[C@H](OC(=O)[C@H](O)[C@@H](NC(=O)c4ccccc4)c4ccccc4)C(C)=C1C3(C)C)[C@]1(OC(C)=O)CO[C@@H]1C[C@@H]2O and report it.
Resp: 2.25

###

System: HCI-024 (organoid from a breast cancer xenograft)
methodDescription: CTG-3D luminescence at 96 h relative to day-0 seeding control (ratio to day 0); higher = more growth / less cytotoxicity; PDxO 3D drug screen, 96 h, CTG-3D normalised to day-0 seeding control.
conditionContext: 100 µM; days in culture: 105
Reported CTG-3D luminescence at 96 h by item:
Respond with the number and no other words.

Req: # return CTG-3D luminescence at 96 h for Cc1nc(-c2cn3c(n2)-c2ccc(-c4cnn(C(C)(C)C(N)=O)c4)cc2OCC3)n(C(C)C)n1 , test system: HCI-024
Resp: 0.403

Req: # return CTG-3D luminescence at 96 h for Cc1cc(Nc2ncc(Cl)c(Nc3ccccc3S(=O)(=O)C(C)C)n2)c(OC(C)C)cc1C1CCNCC1 , test system: HCI-024
Resp: -0.0037

Req: # return CTG-3D luminescence at 96 h for NC1(C(=O)N[C@@H](CCO)c2ccc(Cl)cc2)CCN(c2nc[nH]c3nccc2-3)CC1 , test system: HCI-024
Resp: 0.401

Req: # return CTG-3D luminescence at 96 h for C=CC(=O)N1CCC[C@@H](n2nc(-c3ccc(Oc4ccccc4)cc3)c3c(N)ncnc32)C1 , test system: HCI-024
Resp: -0.00218

Req: # return CTG-3D luminescence at 96 h for CS(=O)(=O)c1ccc(C(=O)Nc2ccc(Cl)c(-c3ccccn3)c2)c(Cl)c1 , test system: HCI-024
Resp: 1.09

Req: # return CTG-3D luminescence at 96 h for CCN1CCN(Cc2ccc(Nc3ncc(F)c(-c4cc(F)c5nc(C)n(C(C)C)c5c4)n3)nc2)CC1 , test system: HCI-024
Resp: 0.0179

Req: # return CTG-3D luminescence at 96 h for COc1cc2c(Oc3ccc4[nH]c(C)cc4c3F)ncnc2cc1OCCCN1CCCC1 , test system: HCI-024
Resp: -0.000777

Req: # return CTG-3D luminescence at 96 h for Nc1ccn([C@@H]2O[C@H](CO)[C@@H](O)C2(F)F)c(=O)n1 , test system: HCI-024
Resp: 0.516

Req: # return CTG-3D luminescence at 96 h for CN(Cc1cnc2nc(N)nc(N)c2n1)c1ccc(C(=O)N[C@@H](CCC(=O)O)C(=O)O)cc1 [methotrexate] , test system: HCI-024
Resp: 1.44

Hello, the source for this data is the supplement of paper PMC8882468, in case you need it.
